System: K-562 leukemia
Assay Notes: NCI-60 one-dose screen, 48 h (100 = growth as untreated, 0 = no growth, -100 = all killed)
Experimental Setup: 10 µM unless noted
The panel holds about 83,000 compounds, 20% with a hit somewhere; the sample as a whole holds those more often. The source made the active and inactive calls. The calls were made as follows: active = growth percent below 10; inactive = the rest.
Outcome Measure: growth

Solved cases (5 shown):
Compound: O=C(Nc1ccc2ncnc(Nc3ccc(F)c(Cl)c3)c2c1)c1ccccc1
Outcome Measure: growth
Val: 69.4% (inactive)
//
Compound: Cn1c2ccccc2c2c(OC(=O)c3ccccc3)c3c(nc21)-c1ccccc1C3
Outcome Measure: growth
Val: 104% (inactive)
//
Compound: CCOC(=O)C1CCN(S(=O)(=O)/N=C2/NC(=O)NC2=C(Cl)Cl)CC1
Outcome Measure: growth
Val: -15.7% (active)
//
Compound: Cc1nccc2c3ccc(OCc4cn(-c5ccc(Br)cc5)nn4)cc3n(CC(C)C)c12
Outcome Measure: growth
Val: 14.8% (inactive)
//
Compound: CCOC(=O)/C=C1\SC(=Nc2ccc(C#N)cc2)N(CCN2C(=O)/C(=C/C(=O)OCC)SC2=Nc2ccc(C#N)cc2)C1=O
Outcome Measure: growth
Val: 7.43% (active)

Record growth per entry; entries follow.
1. COc1cc(-c2csc(NC(=O)Nc3cc(Cl)cc(Cl)c3)n2)cc(OC)c1OC
2. Cc1cnc(SCc2ccc(Cl)cc2Cl)nc1Nc1ccc(Cl)c(Cl)c1
3. COC(=O)/C=C1\SC(=Nc2cccc(Cl)c2)N(CCc2c[nH]c3ccccc23)C1=O
4. COc1cc(-c2cn(-c3ccc(Cl)c(Cl)c3)c(=O)[nH]2)cc(OC)c1OC
5. COc1ccc2cc(/C=C3\N=C(c4cc(OC)c(OC)c(OC)c4)OC3=O)c(OC)nc2c1

# output
1. 32.4% (inactive)
2. 69.3% (inactive)
3. 24.3% (inactive)
4. 84.3% (inactive)
5. 90.1% (inactive)

Record growth per entry; entries follow.
1. S=C(Nc1ccc(Cl)cc1)c1ccccn1
2. O=C(CCCCCCCCC(=O)Nc1cccc(C2=NCCN2)c1)Nc1cccc(C2=NCCN2)c1
3. CCCCCCN1C(=O)CN=C1Nc1ccc2cc3ccc(NC4=NCC(=O)N4CCCCCC)cc3nc2c1

# output
1. 90% (inactive)
2. 73.1% (inactive)
3. -12.1% (active)

Record growth per entry; entries follow.
1. COc1ccc(-n2cc(-c3ccc(Cl)c(Cl)c3)[nH]c2=O)cc1OC
2. Nc1ccccc1NS(=O)(=O)c1ccc(Cl)cc1
3. COc1ccc(C(=O)c2cc(OC)c(OC)c(OC)c2)cc1OC(=O)CCl
4. COc1cccc(NC(=O)Nc2ccc(Oc3ncnc4[nH]c(C)c(C)c34)cc2)c1

# output
1. 80.2% (inactive)
2. 95.9% (inactive)
3. 13.3% (inactive)
4. 83.7% (inactive)

Record growth per entry; entries follow.
1. Cc1nc(C)c(C)nc1C
2. N#CC1(C#N)C2=C(CCCC2)NC(c2c(F)cccc2Cl)C1(C#N)C#N (centres undefined)
3. Cc1nccc2c3ccc(OCc4cn(-c5ccccc5)nn4)cc3n(CCCc3ccccc3)c12
4. CCOC(=O)C(=Cc1c(-c2ccccc2)[nH]c2ccccc12)C(=O)OCC

# output
1. 93.1% (inactive)
2. 25.8% (inactive)
3. 36.5% (inactive)
4. -6.49% (active)
